# pIC50 values compiled below
target: human GPR17 receptor (Homo sapiens); assay: Calcium mobilization functional assay (Fluo-8, FLIPR TETRA) in HEK-293 hGPR17 (Gα-q assay); details: antagonism of MDL29,951 (~EC80) induced Ca2+ signal; cell line (HEK-293 hGPR17 or HEK-293 Suchi5 hGPR17) not given
pIC50: −log10 of the molar value.

Here are 3 compounds together with their reported answers.
Cc1[nH]cc(S(=O)(=O)Nc2ccc(C#N)cc2F)c1-c1ccccc1 [Cpd 461]; 4.30 to 5.30
COc1cccc(-c2cc(S(=O)(=O)Nc3ccc(C#N)cc3F)c[nH]2)c1 [Cpd 010]; > 6.30
O=S(=O)(Nc1ccc(Cl)cc1F)c1c[nH]c(-c2ccccn2)c1 [Cpd 181]; 5.30 to 6.30

Kindly note the recorded pIC50 for N#Cc1ccc(NS(=O)(=O)c2c[nH]c(-c3cccc(F)c3)c2)c(F)c1 [Cpd 004] , which is > 6.30

Kindly note the recorded pIC50 for Cc1ccc(Cc2c[nH]cc2S(=O)(=O)Nc2ccc(C#N)cc2F)s1 [Cpd 486] , which is 5.30 to 6.30

Kindly note the recorded pIC50 for COc1cccc(-c2cc(S(=O)(=O)Nc3cc(F)c(C(F)(F)F)cc3F)c[nH]2)c1F [Cpd 325] , which is 5.30 to 6.30

Kindly note the recorded pIC50 for COc1ccc(C)c(-c2cc(S(=O)(=O)Nc3ccc(C#N)cc3F)c[nH]2)c1 [Cpd 268] , which is 5.30 to 6.30

Kindly note the recorded pIC50 for COc1ccc(-c2cc(S(=O)(=O)Nc3ccc(C#N)cc3F)c[nH]2)cc1 [Cpd 012] , which is 4.30 to 5.30

Kindly note the recorded pIC50 for O=C1C=C(c2cc(S(=O)(=O)Nc3cc(F)c(C(F)(F)F)cc3F)c[nH]2)CC1 [Cpd 505] , which is 4.30 to 5.30

Kindly note the recorded pIC50 for N#Cc1ccc(NS(=O)(=O)c2c[nH]c(-c3ccccn3)c2)c(F)c1F [Cpd 322] , which is 5.30 to 6.30

Kindly note the recorded pIC50 for O=S(=O)(Nc1cc(F)c(OC(F)F)cc1F)c1c[nH]c(C2CCC2)c1 [Cpd 550] , which is > 6.30

---

Biological target: human GPR17 receptor (Homo sapiens, UniProt Q13304)
Sequence (Q13304 whole entry): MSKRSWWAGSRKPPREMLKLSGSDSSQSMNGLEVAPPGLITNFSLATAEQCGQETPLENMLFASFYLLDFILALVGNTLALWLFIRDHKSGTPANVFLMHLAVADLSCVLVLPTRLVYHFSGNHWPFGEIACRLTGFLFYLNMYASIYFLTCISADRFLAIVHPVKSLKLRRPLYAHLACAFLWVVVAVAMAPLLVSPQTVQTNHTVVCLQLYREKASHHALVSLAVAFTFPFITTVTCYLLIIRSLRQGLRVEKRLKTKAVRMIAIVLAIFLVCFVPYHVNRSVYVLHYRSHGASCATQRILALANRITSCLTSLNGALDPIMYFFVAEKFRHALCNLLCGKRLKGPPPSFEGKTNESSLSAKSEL
Experiment: Calcium mobilization functional assay (Fluo-8, FLIPR TETRA) in HEK-293 hGPR17 (Gα-q assay)
Conditions: antagonism of MDL29,951 (~EC80) induced Ca2+ signal; cell line (HEK-293 hGPR17 or HEK-293 Suchi5 hGPR17) not given
Experimental: HEK-293 cells stably expressing the human GPR17 receptor (HEK-293 hGPR17) developed by Axxam (Bresso, Milan, Italy) were cultured at 37° C. in a humidified atmosphere of 5% CO2. Cells were grown in EMEM supplemented with FBS (10%), Penicillin/Streptomycin (1%), Ultraglutamine I (2 mM), puromycin (0.6 μg/mL), G418 (0.4 mg/mL), zeocin (50 μg/mL). […] Elevated intracellular calcium levels can then be measured with calcium-sensitive fluorescent dyes (e.g., Fluo 8-No Wash Dye). […]
assay-metric: IC50

Here are 3 compounds together with their reported answers.
O=S(=O)(Nc1cnsc1)c1c[nH]c(-c2ccccc2)c1 [Cpd 591]; 5000 to 50000 nM
COc1cc(Br)cnc1NS(=O)(=O)c1c[nH]c(-c2ccccc2)c1 [Cpd 062]; 500 to 5000 nM
COc1ccccc1-c1cc(S(=O)(=O)Nc2cc(F)c(Br)cc2F)c[nH]1 [Cpd 532]; 500 to 5000 nM

Kindly note the recorded IC50 for O=S(=O)(Nc1cc(F)c(C(F)(F)F)cc1F)c1c[nH]c(C2CCCC2)c1 [Cpd 132] , which is 500 to 5000 nM

Kindly note the recorded IC50 for O=S(=O)(Nc1cc(Cl)c(C(F)(F)F)cc1F)c1c[nH]c(-c2ccccc2)c1 [Cpd 378] , which is 500 to 5000 nM

Kindly note the recorded IC50 for N#Cc1cc(F)c(NS(=O)(=O)c2c[nH]c(-c3ncc(C(F)(F)F)s3)c2)cc1F [Cpd 667] , which is 5000 to 50000 nM

Kindly note the recorded IC50 for O=S(=O)(Nc1cc(F)c(OC(F)F)cc1F)c1c[nH]c(-c2cc(Cl)ccc2F)c1 [Cpd 410] , which is 500 to 5000 nM

Kindly note the recorded IC50 for COc1ccc(Cl)cc1-c1cc(S(=O)(=O)Nc2ccc(C#N)cc2F)c[nH]1 [Cpd 488] , which is 500 to 5000 nM

Kindly note the recorded IC50 for Cc1ccnc(-c2cc(S(=O)(=O)Nc3ccc(C#N)cc3F)c[nH]2)c1 [Cpd 503] , which is 500 to 5000 nM

Kindly note the recorded IC50 for N#Cc1ccc(NS(=O)(=O)c2c[nH]c(-c3ccc(F)c(Cl)c3)c2)c(F)c1 [Cpd 284] , which is 500 to 5000 nM

Kindly note the recorded IC50 for COc1cccc(-c2cc(S(=O)(=O)Nc3ccc(C#N)cc3F)c[nH]2)c1Cl [Cpd 266] , which is 5000 to 50000 nM

Kindly note the recorded IC50 for O=S(=O)(Nc1cc(F)c(Br)cc1F)c1c[nH]c(-c2ccccc2Cl)c1 [Cpd 533] , which is 500 to 5000 nM

Kindly note the recorded IC50 for N#Cc1cc(F)c(NS(=O)(=O)c2c[nH]cc2Cc2cccc(OC(F)F)c2)cc1F [Cpd 548] , which is < 500 nM

Kindly note the recorded IC50 for COc1cc(Cl)cnc1NS(=O)(=O)c1c[nH]c(-c2ccccc2)c1 [Cpd 134] , which is 500 to 5000 nM

The values you see were collected from patent US20240299385A1.
